Below is a list of entries, each paired with its recorded koff value.
Target: T1, recombinant CD3D&E protein (human CD3-his tag) (human, UniProt P04234 22-105; P07766 23-126, limits assumed)
T1 construct: Analyte in Biacore; also called CD3D&E-His; CD3d&ε-His
T1 sequence (P04234 22-105 limits assumed, chain 1 of 2): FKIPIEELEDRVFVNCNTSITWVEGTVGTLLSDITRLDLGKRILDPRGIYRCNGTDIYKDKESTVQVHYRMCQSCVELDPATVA
T1 sequence (P07766 23-126 limits assumed, chain 2 of 2): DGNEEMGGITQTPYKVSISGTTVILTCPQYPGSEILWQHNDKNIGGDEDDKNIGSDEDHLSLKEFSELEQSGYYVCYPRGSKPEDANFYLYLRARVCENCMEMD
Experiment: SPR Biacore, Ab captured on Protein A;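 also: humanized antibodies on a Protein A chip, human CD3-his analyte flowed over in serial dilutions for 3 min, dissociation tracked 120–360 s on a Biacore T200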
The reply should be a number in s⁻¹, with the unit left off.

Guide cases for koff, answers given:
Hu155A9B1-9 (antibody, V domains shown, humanized mAb) VH: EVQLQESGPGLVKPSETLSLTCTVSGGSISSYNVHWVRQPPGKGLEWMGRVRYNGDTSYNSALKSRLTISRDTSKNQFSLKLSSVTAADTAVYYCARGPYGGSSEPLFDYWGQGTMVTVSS VL: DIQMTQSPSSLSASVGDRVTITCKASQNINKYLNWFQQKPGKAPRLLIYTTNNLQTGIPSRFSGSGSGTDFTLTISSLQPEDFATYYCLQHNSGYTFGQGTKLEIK: 0.0155
Hu192A7B9-22 (antibody, V domains shown, humanized mAb) VH: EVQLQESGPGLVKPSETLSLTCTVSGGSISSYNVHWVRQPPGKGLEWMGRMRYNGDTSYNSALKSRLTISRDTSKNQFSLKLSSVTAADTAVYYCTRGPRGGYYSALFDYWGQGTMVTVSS VL: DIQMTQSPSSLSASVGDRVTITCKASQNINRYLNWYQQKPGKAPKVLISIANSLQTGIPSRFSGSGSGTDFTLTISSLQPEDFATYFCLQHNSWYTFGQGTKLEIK: 0.00462

Attention now turns to another entry.
[Q] Look at this binder and give its reported koff. Hu153A6B1-2 (antibody, V domains shown, humanized mAb) VH: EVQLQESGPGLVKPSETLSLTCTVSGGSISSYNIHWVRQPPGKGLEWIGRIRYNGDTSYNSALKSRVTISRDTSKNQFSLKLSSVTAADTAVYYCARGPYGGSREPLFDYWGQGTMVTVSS VL: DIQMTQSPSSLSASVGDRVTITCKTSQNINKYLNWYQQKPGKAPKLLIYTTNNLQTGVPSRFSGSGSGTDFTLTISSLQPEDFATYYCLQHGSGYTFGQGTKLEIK
[A] 0.0201

Cited source for all entries: patent US20240417469A1
